Test system: NCI-H460
methodDescription: Cytotoxicity against human NCI-H460 cells after 24 hrs by SRB assay
Format: functional, cell-based
cond: NCI-H460, 24 h
measuredEndpoint: IC50

CC(=O)SCCCCC[C@H](NC(=O)[C@@H]1CCCC(=O)N1)C(=O)Nc1ccccc1
100 nM
CC(=O)SCCCCC[C@H](NC(=O)[C@H]1CCC(=O)N1)C(=O)Nc1cccc(C(F)(F)F)c1
30 nM
O=C1CCC[C@@H](C(=O)N[C@@H](CCCCCSSCCCCC[C@H](NC(=O)[C@@H]2CCCC(=O)N2)C(=O)Nc2ccccc2)C(=O)Nc2ccccc2)N1
5400 nM

Problem: Please indicate IC50 recorded for CC(=O)SCCCCC[C@H](NC(=O)[C@H]1CCCC(=O)N1)C(=O)Nc1ccccc1
Result: 100 nM

Problem: Please indicate IC50 recorded for CC(=O)SCCCCC[C@H](NC(=O)[C@@H]1CCC(=O)N1)C(=O)Nc1cccc(C)c1
Result: 60 nM

Problem: Please indicate IC50 recorded for CC(=O)SCCCCC[C@H](NC(=O)[C@@H]1CCCC(=O)N1)C(=O)Nc1cccc(C)c1
Result: 60 nM
